# measured target: Retinoic acid receptor RXR-alpha (Homo sapiens) (UniProt P19793)
# Sequence (P19793 whole entry, looked up): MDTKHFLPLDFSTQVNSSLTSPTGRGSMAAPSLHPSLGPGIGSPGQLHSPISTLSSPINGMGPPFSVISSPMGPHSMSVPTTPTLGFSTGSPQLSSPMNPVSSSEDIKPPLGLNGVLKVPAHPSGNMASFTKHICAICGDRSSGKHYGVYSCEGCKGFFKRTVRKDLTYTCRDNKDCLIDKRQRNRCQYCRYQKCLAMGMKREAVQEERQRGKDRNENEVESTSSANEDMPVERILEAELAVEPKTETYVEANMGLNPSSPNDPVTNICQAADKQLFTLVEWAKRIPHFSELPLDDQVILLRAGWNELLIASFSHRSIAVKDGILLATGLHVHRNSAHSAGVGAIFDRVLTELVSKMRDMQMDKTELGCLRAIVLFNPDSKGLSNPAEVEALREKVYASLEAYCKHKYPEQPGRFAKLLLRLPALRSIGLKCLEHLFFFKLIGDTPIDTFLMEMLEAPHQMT
# assay: qHTS assay for small molecule agonists of retinoid X receptor alpha signaling (AID 588544);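 also: 0% = DMSO basal wells and 100% = reference agonist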
# condition label: HEK293T RXRa-UAS-bla, beta-lactamase reporter, 18 h; series mostly up to 76.7 µM
Inconclusive results are not listed. Active and inactive are the calls of the source. Calls follow the shape of the full dose curve.
endpoint name: outcome

compound: O=C(O)CN(CCN(CC(=O)O)CC(=O)O)CC(=O)O
measured target: Retinoic acid receptor RXR-alpha (Homo sapiens) (UniProt P19793)
recorded value: inactive
--
compound: CCCCC/C=C\C/C=C\CCCCCCCC(=O)O
measured target: Retinoic acid receptor RXR-alpha (Homo sapiens) (UniProt P19793)
recorded value: inactive
--
compound: O=CCCCC=O
measured target: Retinoic acid receptor RXR-alpha (Homo sapiens) (UniProt P19793)
recorded value: inactive
--
compound: CC(O)CO (configuration not stated)
measured target: Retinoic acid receptor RXR-alpha (Homo sapiens) (UniProt P19793)
recorded value: inactive
--
compound: CC1=CCC(C(C)(C)O)CC1 (configuration not stated)
measured target: Retinoic acid receptor RXR-alpha (Homo sapiens) (UniProt P19793)
recorded value: inactive
--
compound: IC(I)I
measured target: Retinoic acid receptor RXR-alpha (Homo sapiens) (UniProt P19793)
recorded value: inactive
--
compound: CCCCCCCC/C=C\CCCCCCCC(=O)O
measured target: Retinoic acid receptor RXR-alpha (Homo sapiens) (UniProt P19793)
recorded value: inactive

###

Measured max response of individual entries
# Test system: HEK293
# assay: Cytotoxic Profiling of Annotated Libraries Using Quantitative High-Throughput Screening (AID 1296008); also: nearly all actives have a fitted effect of over 60% in size; as to max response: % is scaled to controls: 0 for no effect and ±100 for the full control effect
# condition label: Five cell lines viability, CellTiter-Glo ATP luminescence, 48-72 h; stronger effect = lower value
Results filed as inconclusive are left out. Calls of active or inactive are those of the source. Calls come from the whole dose curve; as a rule, active = well fitted inhibition curve with a large enough effect; inconclusive = small, poorly fitted or top-dose-only effect; inactive = flat fitted curve, though single readings scatter.
endpoint name: max response

compound: O=C(NC[C@H](O)CN1CCc2ccccc2C1)c1cc(NC2COC2)ncn1
recorded value: -6.86% (inactive)
--
compound: NS(=O)(=O)NCCNc1nonc1C(=Nc1ccc(F)c(Br)c1)NO
recorded value: -61.6% (inactive)
--
compound: CC(=O)OC(C)OC(=O)C(C)c1ccc(-c2ccccc2)c(F)c1 (stereo not given)
recorded value: -11.4% (inactive)
--
compound: C[C@]12C=CC(=O)C=C1CC[C@@H]1[C@@H]2[C@@H](O)C[C@@]2(C)[C@H]1CC[C@]2(O)C(=O)COC(=O)CCC(=O)O
recorded value: -0.357% (inactive)
--
compound: C[C@@H]1C[C@H]2[C@@H]3CCC4=CC(=O)C=C[C@]4(C)[C@@]3(F)[C@@H](O)C[C@]2(C)[C@@]1(O)C(=O)COP(=O)(O)O
recorded value: 4.74% (inactive)

###

# assay: qHTS Assay for Lipid Storage Modulators (AID 1519)
# condition label: Drosophila S3 cells, BODIPY lipid droplet/cell ratio, laser cytometry; measured here: lipid channel max response; cells loaded with oleic acid
Records with an inconclusive call do not appear.

compound: O=c1ccn([C@@H]2O[C@H](CO)[C@@H](O)[C@H]2O)c(=O)[nH]1
measurement unit: %
max response: -5.71

compound: CC(C)(C)C(=O)OCOC(=O)[C@@H]1N2C(=O)[C@@H](N=CN3CCCCCC3)[C@H]2SC1(C)C
measurement unit: %
max response: -6.96

compound: C[C@@H]1CCC2[C@@H](C)[C@@H](O)O[C@@H]3O[C@@]4(C)CC[C@@H]1[C@@]23OO4 (stereo not given in full)
measurement unit: %
max response: 15.2

compound: CCC(=O)NCCC1CCc2ccc3c(c21)CCO3 (stereo not given)
measurement unit: %
max response: 23.8

compound: Cc1c(C)c2c(c(C)c1O)CC[C@@](C)(CCC[C@H](C)CCC[C@H](C)CCCC(C)C)O2
measurement unit: %
max response: -14.3

compound: OCc1ccccc1O[C@@H]1O[C@H](CO)[C@@H](O)[C@H](O)[C@H]1O
measurement unit: %
max response: -16.3

compound: CCN(CC)Cc1cc(Nc2ccnc3cc(Cl)ccc23)ccc1O
measurement unit: %
max response: -20.7

compound: NC(=O)c1ncn(C2OC(CO)C(O)C2O)n1 (stereo not given)
measurement unit: %
max response: 12.6

compound: CC1=C(/C=C/C(C)=C/C=C/C(C)=C/C=C/C=C(C)/C=C/C=C(C)/C=C/C2=C(C)CCCC2(C)C)C(C)(C)CCC1
measurement unit: %
max response: 17

compound: CN1Cc2c(N)cccc2C(c2ccccc2)C1 (stereo not given)
measurement unit: %
max response: 9.26

###

# Test system: CP201
# assay: qHTS profiling for inhibitors of Plasmodium falciparum proliferation (AID 504749); also: nearly all actives have a fitted effect of over 60% in size; also: potency is read from the fitted curve at half-maximal effect
# condition label: P. falciparum in erythrocytes, SYBR Green DNA, 72 h; series mostly up to 28.7 µM
Records with an inconclusive call do not appear. Activity calls are given as the source filed them. Calls come from the whole dose curve; as a rule, active = well fitted inhibition curve with a large enough effect; inconclusive = small, poorly fitted or top-dose-only effect; inactive = flat fitted curve, though single readings scatter.

structure string: O=C1C(=O)c2ncccc2-c2cccnc21
measured target: CP201
Potency: 1690 nM (active)

structure string: C[C@H]1C[C@H]2[C@@H]3CCC4=CC(=O)C=C[C@]4(C)[C@@]3(F)[C@@H](O)C[C@]2(C)[C@@]1(O)C(=O)CO
measured target: CP201
Potency: inactive

structure string: CN(C)CCCN1c2ccccc2C(C)(C)c2ccccc21
measured target: CP201
Potency: inactive

structure string: CCN(CC)CCOc1ccc(-c2nc3cc(Cl)ccc3s2)cc1
measured target: CP201
Potency: inactive

structure string: O=CCCCC=O
measured target: CP201
Potency: inactive

###

# System: Hek293T
# assay: Primary qHTS to identify gynecologic anti-cancer compounds using libraries of approved drugs and bioactive compounds (AID 1345084); also: % is scaled to controls: 0 for no effect and ±100 for the full control effect; nearly all actives have a fitted effect of over 55% in size
# condition label: Gynecologic cancer cell panel viability, ATPlite luminescence, 48 h, control line for the selectivity index; series mostly up to 57.5 µM
Inconclusive results are not listed. Activity calls are given as the source filed them. Calls follow the shape of the dose curve; as a rule, active = well fitted cell-killing curve with a large enough effect; inconclusive = small, poorly fitted or top-dose-only effect, or effect the other way; inactive = flat fitted curve, though single readings scatter.
endpoint name: activity change, negative = cytotoxicity

structure string: COc1c(C)c(C(=O)c2ccc(N)c(C(=O)O)c2)n2ccccc12
measured target: Hek293T
recorded value: inactive
//
structure string: C[C@@H]1O[C@@H](O[C@@H]2[C@@H](O)[C@@H](O)[C@H](O[C@@H]3[C@@H](O)[C@@H](O[C@]4(CO)O[C@H](CO)[C@@H](O)[C@@H]4OC(=O)/C=C/c4ccc(O)cc4)O[C@H](CO)[C@H]3OC(=O)/C=C/c3ccc(O)cc3)O[C@H]2C)[C@H](O)[C@H](O)[C@H]1O
measured target: Hek293T
recorded value: 1.13% [at 11.6 µM] (inactive)
//
structure string: O=C(NN1CCCCC1)c1nn(-c2ccc(Cl)cc2Cl)c(-c2ccc(C#Cc3ccc(C(F)(F)F)cc3)s2)c1CNS(=O)(=O)N1CCCC1
measured target: Hek293T
recorded value: inactive

###

# Test system: KB-3-1
# assay: Cytotoxic Profiling of Annotated Libraries Using Quantitative High-Throughput Screening (AID 1296008); also: nearly all actives have a fitted effect of over 60% in size
# condition label: Five cell lines viability, CellTiter-Glo ATP luminescence, 48-72 h
Records with an inconclusive call do not appear. Calls of active or inactive are those of the source. Calls follow the shape of the dose curve; as a rule, active = well fitted inhibition curve with a large enough effect; inconclusive = small, poorly fitted or top-dose-only effect; inactive = flat fitted curve, though single readings scatter.

compound: OC1COC(OCC2OC(OCCc3ccccc3)C(O)C(O)C2O)C(O)C1O (centres undefined)
outcome: inactive
//
compound: COc1cccc(-c2ccc([C@@H](Oc3cc(-c4ccc(C[C@H](N)C(=O)O)cc4)nc(N)n3)C(F)(F)F)cc2)c1
outcome: inactive
//
compound: CO[C@@H]1COCC[C@@H]1N[C@@H]1CC[C@@](C(=O)N2CCc3ncc(C(F)(F)F)cc3C2)(C(C)C)C1
outcome: inactive
//
compound: COc1ccccc1[C@@H]1C2=C(CC(C)(C)CC2=O)Nc2n[nH]c(C(F)(F)F)c21
outcome: inactive
//
compound: COc1ccc2c(c1O)OC[C@H]1c3ccc(O)cc3O[C@@H]21
outcome: inactive
//
compound: CCOc1nc2cccc(C(=O)O)c2n1Cc1ccc(-c2ccccc2-c2noc(=O)[nH]2)cc1
outcome: inactive
//
compound: O=C(C1CC1)N1CC[C@@H](Cc2n[nH]c(=O)n2-c2ccc(-c3ccc4occc4c3)cc2)C1
outcome: inactive
//
compound: NCCOCCOCCNC(=O)Cc1ccc(Nc2nc(NCc3ccc(F)cc3)nc(NCC3CCCCC3)n2)cc1
outcome: inactive
//
compound: CCCCCCc1cccc(NC(=O)[C@H](N)CCP(=O)(O)O)c1
outcome: inactive

###

# Tested on: HaCat
# assay: Cytotoxic Profiling of Annotated Libraries Using Quantitative High-Throughput Screening (AID 1296008); also: nearly all actives have a fitted effect of over 60% in size
# condition label: Five cell lines viability, CellTiter-Glo ATP luminescence, 48-72 h
Inconclusive results are not listed. Calls of active or inactive are those of the source. Calls follow the shape of the dose curve; as a rule, active = well fitted inhibition curve with a large enough effect; inconclusive = small, poorly fitted or top-dose-only effect; inactive = flat fitted curve, though single readings scatter.
endpoint name: outcome

compound: Cc1cccc(-c2[nH]c(CNc3ccccc3F)nc2-c2ccc3ncnn3c2)n1
recorded value: inactive
--
compound: O=C1CC(c2ccc([N+](=O)[O-])cc2)=NN1c1ccccc1
recorded value: inactive
--
compound: CC1=CC(=O)CC(C)(C)C1CCC(C)OC1OC(COC(=O)c2cc(O)c(O)c(O)c2)C(O)C(O)C1O (centres undefined)
recorded value: inactive
--
compound: CNC(=O)Nc1ccc(OC)c(NC(=O)NC(=O)c2cc(F)c(F)cc2Cl)c1
recorded value: inactive
--
compound: CC(C)(C)c1cc(CN2CCN(CC(O)c3ccc(Cl)cc3)CC2)cc(C(C)(C)C)c1O (centres undefined)
recorded value: inactive
--
compound: CC(C)CC(=O)n1cc(C(N)=O)c(=O)cc1C(O)c1ccccc1 (centres undefined)
recorded value: inactive
--
compound: CC1(CCC(=O)O)C(=O)C=CC23CC4CC(OC4(C)C2O)C13 (centres undefined)
recorded value: inactive
--
compound: CC1(C)OC(=O)C(OCC2CC2)=C1c1ccc(S(C)(=O)=O)cc1
recorded value: inactive
--
compound: COc1ccc(C2=CC(=O)OC2Cc2ccc(O)cc2)c(O)c1 (centres undefined)
recorded value: inactive
--
compound: O=C(COc1ccc(Cl)cc1)NC1CCC(NC(=O)COc2ccc(Cl)cc2)CC1 (centres undefined)
recorded value: inactive
--
compound: C/C=C/C=C/C(CC(=O)O)Nc1ccc(C=O)cc1 (centres undefined)
recorded value: inactive
--
compound: O=C(O)c1ccc(CCCc2ccc(OCCc3ccc(F)cc3)cc2)o1
recorded value: inactive
--
compound: CCOc1ccc(C(Nc2ccccn2)c2ccc3ccc(C)nc3c2O)cc1C (centres undefined)
recorded value: inactive
--
compound: CC[C@H]1OC(=O)[C@H](C)[C@@H](OC2C[C@@](C)(OC)[C@@H](O)[C@H](C)O2)[C@H](C)[C@@H](OC2O[C@H](C)C[C@H](NC)[C@H]2O)[C@](C)(O)C[C@@H](C)CN(C)[C@H](C)[C@@H](O)[C@]1(C)O (some centres undefined)
recorded value: inactive
--
compound: C=C1CCC2C(C)(C)CC(=O)CC2(C)C1CCC(C)CCOC(C)=O (centres undefined)
recorded value: inactive
--
compound: O=C(Nc1cccnn1)N1CCC(=Cc2cccc(Oc3ccc(C(F)(F)F)cn3)c2)CC1
recorded value: inactive
--
compound: CC(C)(O)c1ccc2c(c1)C(=O)CC1[C@](C)(CO)CCC[C@]21C (some centres undefined)
recorded value: inactive
--
compound: CC(=O)O[C@@H]1[C@H]2[C@@H](OC(=O)c3ccccc3)[C@@H](C)C[C@]2(O)[C@H](OC(C)=O)[C@@]2(C)[C@@H]3CC(C)(C)C(=O)[C@]3(OC(C)=O)C[C@@]12C
recorded value: inactive
--
compound: C/C=C/C1=CC2=C(CO1)C(=O)[C@](C)(O)[C@H](OC(=O)c1c(O)cc(OC)c(O)c1C)C2
recorded value: inactive
--
compound: CC(=O)OCC(=O)O[C@@H]1[C@H]2[C@@H](OC(=O)c3ccccc3)[C@@H](C)C[C@]2(O)[C@H](OC(C)=O)C2(C)[C@H]3CC(C)(C)C(=O)[C@@H]3CC1(OC(C)=O)[C@@H]2OC(C)=O (some centres undefined)
recorded value: inactive
--
compound: C[C@@H]1O[C@@H](O[C@H]2[C@H](OC(=O)[C@]34CCC(C)(C)C[C@H]3C3=CCC5[C@@]6(C)C[C@H](O)[C@H](O[C@@H]7O[C@H](CO[C@@H]8OC[C@H](O)[C@H](O)[C@H]8O)[C@@H](O)[C@H](O)[C@H]7O)C(C)(C)C6CC[C@@]5(C)[C@]3(C)C[C@H]4O)OC[C@@H](O)[C@@H]2O)[C@H](O)[C@H](O[C@@H]2OC[C@](O)(CO)[C@H]2O)[C@H]1O[C@@H]1OC[C@H](O)[C@H](O[C@@H]2OC[C@@H](O)[C@H](O)[C@H]2O)[C@H]1O (some centres undefined)
recorded value: inactive
--
compound: CC(=O)[C@@H]1CC[C@]2(C(=O)O)CC[C@]3(C)C(CCC4[C@@]5(C)CC[C@H](O)C(C)(C)C5CC[C@]43C)C12 (some centres undefined)
recorded value: inactive
--
compound: CC1=CC2(O)/C=C/C(C)(O)CC(O)/C=C/C(=O)OC23C(=O)NC(CC(C)C)C3C1C (centres undefined)
recorded value: inactive
--
compound: CC1(C)CC[C@]2(C(=O)O)CC[C@]3(C)C(=CCC4[C@@]5(C)CCC(O[C@@H]6OC[C@H](O)[C@H](O)[C@H]6O[C@@H]6O[C@H](CO)[C@@H](O)[C@H](O)[C@H]6O)[C@@](C)(CO)C5CC[C@]43C)[C@@H]2C1 (some centres undefined)
recorded value: inactive
--
compound: C=C[C@H]1[C@H](O[C@@H]2O[C@H](CO[C@@H]3OC[C@](O)(CO)[C@H]3O)[C@@H](O)[C@H](O)[C@H]2O)OC=C2C(=O)OCC[C@H]21
recorded value: inactive
--
compound: C/C(=C/CO)CC[C@@H]1[C@@]2(C)CCC[C@](C)(C(=O)O)C2CC[C@@]1(C)O (some centres undefined)
recorded value: inactive
--
compound: CC1(C)CC(=O)N(CCCCN2CCN(c3ncccn3)CC2)C(=O)C1
recorded value: inactive
--
compound: C/C=C(\C)C(=O)OC[C@H]1O[C@H](O[C@H]2O[C@H](CO)[C@@H](OC(=O)/C(C)=C/C)[C@H](O)[C@H]2O[C@@H]2O[C@H](CO)[C@@H](O)[C@H](O)[C@H]2O)[C@H](O[C@@H]2O[C@H](CO)[C@@H](O)[C@H](O)[C@H]2O)[C@@H](O)[C@@H]1O
recorded value: inactive
--
compound: CC(C)C1=CC2=CCC3[C@](C)(CCC[C@@]3(C)C(=O)O)C2CC1O (some centres undefined)
recorded value: inactive
